assay: 28 day twice daily topical administration, toxicokinetics, dermal irritancy and toxicity; assay type: in vivo, Gottingen minipigs; settings: both sexes, Gottingen, minipig, in vivo, 60 mg/kg/day
measure.name: Tmax

(Q) Name the recorded Tmax of the item CC(C)c1c(O)cc(/C=C/c2ccccc2)cc1O [3,5-Dihydroxy-4-isopropyl-trans-stilbene] in your answer.
(A) 1 to 3 h

----------
assay: in vivo; settings: minipig, topical or ocular, 4 % cream, BID
measure.name: AUC at 13 weeks (ng·h/mL)
Return type: number; implicit unit ng·h/mL.

(Q) Name the recorded AUC at 13 weeks of the item CC(C)c1c(O)cc(/C=C/c2ccccc2)cc1O [3,5-Dihydroxy-4-isopropyl-trans-stilbene] in your answer.
(A) 99

----------
test: 28 day twice daily topical administration, toxicokinetics, dermal irritancy and toxicity; type: in vivo, Gottingen minipigs; conditions: both sexes, Gottingen, minipig, in vivo, topical or ocular; highest dose tested; 28 days; read-out: NOAEL for dermal irritation or systemic toxicity
measure.name: NOAEL at 28 days (mg/kg/day)
Return type: number; implicit unit mg/kg/day.

(Q) Name the recorded NOAEL at 28 days of the item CC(C)c1c(O)cc(/C=C/c2ccccc2)cc1O [3,5-Dihydroxy-4-isopropyl-trans-stilbene] in your answer.
(A) 60
